system: BSC-1; test: Cytotoxicity against african green monkey BSC1 cells infected with Vaccinia virus assessed as lactate dehydrogenase release after 20 hrs by microplate reader; assay type: cell-based; details: chlorocebus aethiops, bsc-1, 20 h
Measurement Label: CC50 (µM)
Just the number in µM, nothing appended.

COc1cc(-c2nc(-c3ccccc3)c(-c3ccc(Br)cc3)[nH]2)cc(OC)c1O    57.2

Now, please, on to the next compound.
Item: COc1ccc(NCc2nc3ccccc3n2CCOc2ccc(C)cc2)cc1 | CC50: 121

====

// IC50 lookup, one value per entry
molecular target: Uracil-DNA glycosylase (Vaccinia virus (strain Western Reserve) (VACV) (Vaccinia virus (strainWR))); test: Inhibition of Vaccinia virus WR strain processivity factor D4 interaction with A20 protein assessed as inhibition of E9 DNA polymerase-mediated DIG-dUTP incorporation into DNA strand by rapid plate assay

For orientation, consider the following solved cases.
Cc1cc2n(n1)C(c1cc(C(C)(C)C)c(O)cc1O)Nc1ccccc1-2 (stereo not drawn)    138 µM
O=C1c2ccccc2-c2onc3c2C1C(NC1CCCCC1)C=C3NCCO (stereo not drawn)    34.1 µM
O=S(=O)(c1ccc(C2=CSC(Nc3ccc(F)cc3)N2CCCCCCO)cc1)N1CCCC1 (stereo not drawn)    > 200 µM

Recorded result, COc1ccc(NCc2nc3ccccc3n2CCOc2ccc(C)cc2)cc1 , IC50: > 200 µM

IC50 in this record for COc1cc(-c2nc3ccc(Cl)cn3c2Nc2ccc3c(c2)OCCO3)ccc1O : > 200 µM

Short answer for CCOc1ccc2c(c1)C1CC=CC1[C@H](c1ccccc1Cl)N2 (stereo partly drawn) : IC50 was 221 µM

Kindly note the recorded IC50 for COc1ccc(N2CCN(Cc3nc4c(c(=O)[nH]c(=O)n4C)n3Cc3ccc(Cl)cc3)CC2)cc1 , which is > 200 µM

The value of IC50 measured for the compound COc1ccc(Nc2cc(C(=O)NCCCN3CCN(c4ccccc4F)CC3)c3ccccc3n2)c(OC)c1 turned out to be > 200 µM

Looking up CCOc1ccccc1C(=O)Nc1ccc2nc3c(c(Nc4ccc(OC)c(OC)c4)c2c1)CCCC3 , I see its IC50 listed as 106 µM
